# Target of assay: T1, human BKB2R-derived epitope peptide (SEQ ID NO:73), PEG-biotin (human, also: PEG-biotin, site not given here)
# T1 construct: also called immunogenic human BKB2R peptide fragment
# T1 peptide: KEYSDEGHNVTAC
# Method description: BLI (Octet), peptide-PEG-biotin on streptavidin sensor, antibody 500 nM
pKd: −log10 of the molar value. Where no end group is shown, it is not given here.
# reported pKd; entries follow
Assay metric: pKd

Binder	Assay metric	Observed measurement
humanized anti-BKB2R antibody H39/L37 (antibody, human IgG2, kappa, V domains shown) VH: EVKLVESGGGLVQPGGSLRLSCAVSGFTFSDYWMDWVRQAPGKGLEWVAEIRLKSDNYATHYAASVKGRFTISRDDSKSRLYLQMNSLKTEDTAVYYCTRDYYAMEYWGQGTTVTVSS VL: DIVMTQTPLSLSVTPGQPASISCKSSQTIVHSNGKTYLYWYLQKPGQSPQLLIYKVSSRFSGVPDRFSGSGSGTDFTLKISRVEAEDVGVYYCFQASHVPYTFGQGTKLEIKR	pKd	7.63
humanized anti-BKB2R antibody H37/L38 (antibody, human IgG2, kappa, V domains shown) VH: EVQLVESGGGLVQPGGSLRLSCAASGFTFSDYWMDWVRQAPGKGLEWVGEIRLKSDNYATHYAASVKGRFTISRDDSKNSLYLQMNSLKTEDTAVYYCTRDYYAMEYWGQGTTVTVSS VL: DIVMTQTPLSLPVTSGEPASISCRSSQTIVHSNGKTYLDWYLQKPGQSPQLLIYKVSNRASGVPDRFSGSGSGTDFTLKISRVEAEDVGVYYCFQASHVPYTFGGGTKVEIKR	pKd	6.66
